test: binders of r(CAG) RNA repeats, primary screen, biochemical, fluorescence (AID 651821); conditions: r(CAG) RNA repeat, TO-PRO-1 dye displacement fluorescence; at 3 µM; stronger effect = higher value;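 also: 0% = DMSO alone and 100% = 100 µM mitoxantrone as full dye displacement; higher means more dye released from RNA so lower well fluorescence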
Out of some 370,000 compounds screened, about 4,700 (1.3%) were called active. The entries come from a sample that favours actives as a whole.
Reported values of inhibition for individual entries
Quick note: give the figure in %, leave out the unit.

Some compounds with known inhibition results, for comparison:
[[record]]
compound = "COC(=O)c1cccc(NC(=O)CSc2nc(C)cc(=O)[nH]2)c1"
value_observed = 6.31

[[record]]
compound = "COc1ccc(Cn2c(O)c(/C=C3/C=CC=N3)c(=O)[nH]c2=O)cc1"
value_observed = 4.64

[[record]]
compound = "Cc1cc(NS(=O)(=O)c2ccc(NC(=O)c3cccc(OC(F)F)c3)cc2)nc(C)n1"
value_observed = 4.48

[[record]]
compound = "c1ccc(CN=C2Nc3ccccc3CS2)nc1"
value_observed = -3.75

[[record]]
compound = "O=S1(=O)CC(N2CCN(CCO)CC2)CN1Cc1cn(Cc2cccc(Cl)c2)nn1 (centres undefined)"
value_observed = 1.81

[[record]]
compound = "COC(=O)c1c(-c2ccc(OC)cc2)c2c(c3c4cc(OC)ccc4n(S(=O)(=O)c4ccc(F)cc4)c13)C(=O)N(C)C2"
value_observed = 14.1

[[record]]
compound = "CCc1nnc(NC(=O)[C@@H](NC(=O)c2cccc(C)c2)C(C)C)s1"
value_observed = 2.27

[[record]]
compound = "CCCCN1C(=O)C(=O)N(CC(=O)Nc2cccc(C(C)=O)c2)C1=O"
value_observed = 4.35


Here is another compound to look at.
input: Name the reported inhibition value associated with the compound `O=C(NC(=S)Nc1ccc(S(=O)(=O)Nc2ncccn2)cc1)c1cccc(Br)c1`
output: 5.78

* * *

Reported values of inhibition for individual entries
assay: binders of r(CAG) RNA repeats, primary screen, biochemical, fluorescence (AID 651821); details: r(CAG) RNA repeat, TO-PRO-1 dye displacement fluorescence; at 3 µM; stronger effect = higher value
Among all 370,000 compounds or so, about 4,700 (1.3%) were called active. The entries come from a sample that favours actives as a whole.
Quick note: give the figure in %, leave out the unit.

input: Name the reported inhibition value associated with the compound `Cc1cccc(NC(=O)c2cc3c(C)nn(-c4ccccc4)c3s2)c1`
output: 11.1

input: Could you do the same for O=C(O)C1CCCN1S(=O)(=O)c1ccc(Br)cc1 (stereo not given) , please?
output: -0.5

input: Could you do the same for `CC(C)(C)n1nc(C2CC2)c(Br)c1NC(=O)c1ccccc1F` , please?
output: 2.68

input: Could you do the same for `CCOC(=O)[C@]12CCCCC/C=C\1N(Cc1ccc(OC)cc1)C(=O)[C@H]2CC(=O)NCc1ccc(C)o1` , please?
output: 3.94

input: Could you do the same for `CCOc1cc(C)ccc1OCc1nnc(SCC(=O)Nc2cccc(C(=O)O)c2)n1-c1ccccc1` , please?
output: 42

input: Could you do the same for COC(=O)C1=C(C)N(Cc2ccc(C(F)(F)F)cc2)C(=NCc2ccc(C(F)(F)F)cc2)NC1c1cccc(Cl)c1 (stereo not given) , please?
output: 2.08

input: Could you do the same for `CCS(=O)(=O)c1ccc(C(=O)NC)c(Cl)c1Cl` , please?
output: -0.44

input: Could you do the same for `Nc1[nH]c(=S)nc2nc(-c3ccccc3)c(-c3ccccc3)nc12` , please?
output: 41.4

input: Could you do the same for `COC(=O)c1ccccc1-n1cc(COC(=O)NCCc2ccccc2)nn1` , please?
output: 1.18

input: Could you do the same for `CCCCC[C@@H]1C=C(C(=O)OCC)[C@H](c2ccccc2)N1S(=O)(=O)c1ccc(C)cc1` , please?
output: 5.36

* * *

Reported values of inhibition for individual entries
assay: binders of r(CAG) RNA repeats, primary screen, biochemical, fluorescence (AID 651821); conditions: r(CAG) RNA repeat, TO-PRO-1 dye displacement fluorescence; at 3 µM; stronger effect = higher value;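 also: 0% = DMSO alone and 100% = 100 µM mitoxantrone as full dye displacement; higher means more dye released from RNA so lower well fluorescence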
Among all 370,000 compounds or so, about 4,700 (1.3%) were called active. The entries come from a sample that favours actives as a whole.
Quick note: give the figure in %, leave out the unit.

[[record]]
compound = "Cc1ccccc1CN1CCCCC(NC(=O)c2cccc(C#N)c2)C1=O (stereo unspecified)"
value_observed = 3.06


input: Name the reported inhibition value associated with the compound `COc1ccc(Cl)cc1C=CC=NNC(=O)c1ccncc1`
output: 1.27

input: Could you do the same for `COc1ccc(Cl)cc1C=CC=Nc1ccc(S(N)(=O)=O)cc1` , please?
output: 14.6

input: Could you do the same for `Nn1c(SCC(=O)N2c3ccccc3Sc3ccccc32)nnc1-c1n[nH]c2c1CCC2` , please?
output: 12.9

input: Could you do the same for `COc1ccccc1/C=C/C=N/n1c(-c2ccc(Cl)cc2Cl)n[nH]c1=S` , please?
output: 36.1

input: Could you do the same for `Cc1cc(OC(=O)NCCc2ccc(F)cc2)ccc1F` , please?
output: 1.32

input: Could you do the same for `O=C1CC(c2ccccc2)=NN1c1ccc([N+](=O)[O-])cc1` , please?
output: 45.5

input: Could you do the same for `O=S1(=O)c2c(cccc2N2CC[C@H](O)C2)O[C@@H]2CCN1C2` , please?
output: 2.13

input: Could you do the same for `C[C@@H](NC(=O)c1ccccc1OCC(=O)Nc1ccc(I)cc1)C(=O)N(C)Cc1ccccc1` , please?
output: 5.02

input: Could you do the same for `C=CCN1C(=O)N(Cc2ccccc2)c2ccccc2S1(=O)=O` , please?
output: -0.57

input: Could you do the same for COCc1[nH]nc2c1C(c1ccccc1)N(c1ccccc1)C2=O (stereo unspecified) , please?
output: -0.7

* * *

assay: binders of r(CAG) RNA repeats, primary screen, biochemical, fluorescence (AID 651821); details: r(CAG) RNA repeat, TO-PRO-1 dye displacement fluorescence; at 3 µM; stronger effect = higher value;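 also: 0% = DMSO alone and 100% = 100 µM mitoxantrone as full dye displacement; higher means more dye released from RNA so lower well fluorescence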
Hit rate of the full screen: of about 370,000 compounds, about 4,700 (1.3%) were called active. The entries come from a sample that favours actives as a whole.
Reported values of inhibition for individual entries
Quick note: give the figure in %, leave out the unit.

Some compounds with known inhibition results, for comparison:
[[record]]
compound = "CC(=O)Nc1ccc(OC[C@@H](O)CN2CCC(C(O)(c3ccccc3)c3ccccc3)CC2)cc1"
value_observed = -1

[[record]]
compound = "COCC(=O)Nc1cc(C(=O)OC)cc(C(=O)OC)c1"
value_observed = -0.01

[[record]]
compound = "CCOC(=O)[C@]12CCCC3=C1N(CCC3)C(=O)[C@@H](CC(=O)N1CCSCC1)C2"
value_observed = -0.18

[[record]]
compound = "COC(=O)[C@]12C[C@H](CC(=O)NCCCN3CCCC3=O)C(=O)N(CCc3ccc(OC)c(OC)c3)C1=C[C@H](COCc1ccccc1)O[C@@H]2C"
value_observed = 3.23


input: Name the reported inhibition value associated with the compound `CCOC(=O)N1CCN(C(=O)C[C@H]2C[C@@]3(C(=O)OC)C(=C[C@H](C4CCCC4)O[C@@H]3C)N(Cc3ccccc3)C2=O)CC1`
output: 1.98

input: Could you do the same for `COc1ccc(S(=O)(=O)Nc2cc(C)on2)cc1NC(C)=O` , please?
output: 3.85

input: Could you do the same for `Cc1cc(NS(=O)(=O)c2ccccc2)no1` , please?
output: -0.66

input: Could you do the same for CC1(C(=O)NS(=O)(=O)c2ccc(Cl)cc2)CCN1C(=O)CC1CCCC1 (centres undefined) , please?
output: 9.21

input: Could you do the same for Cc1ccccc1S(=O)(=O)NC(=O)C1(C)CCN1C(=O)C1(c2ccc(Cl)cc2)CC1 (centres undefined) , please?
output: 33.6

input: Could you do the same for CC1(C(=O)NS(=O)(=O)c2ccc3ccccc3c2)CCN1C(=O)C1(c2ccc(Cl)cc2)CCC1 (centres undefined) , please?
output: 68.5

input: Could you do the same for `O=C(CSc1nnc(SCc2ccc(Cl)cc2)s1)N/N=C/c1ccccc1Cl` , please?
output: 5.04

input: Could you do the same for CCC(Oc1ccccc1C)C(=O)Nc1ccc(S(=O)(=O)Nc2cc(C)on2)cc1 (centres undefined) , please?
output: 20.8

* * *

test: binders of r(CAG) RNA repeats, primary screen, biochemical, fluorescence (AID 651821); details: r(CAG) RNA repeat, TO-PRO-1 dye displacement fluorescence; at 3 µM; stronger effect = higher value;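 also: 0% = DMSO alone and 100% = 100 µM mitoxantrone as full dye displacement; higher means more dye released from RNA so lower well fluorescence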
Screen size: about 370,000 compounds; about 4,700 (1.3%) were called active. The sample holds actives, similar compounds and a random draw of the others, so the mix is not that of the screen.
Reported values of inhibition for individual entries
Quick note: give the figure in %, leave out the unit.

Some compounds with known inhibition results, for comparison:
[[record]]
compound = "O=c1oc2ccccc2c(NC2CCCCC2)c1NS(=O)(=O)c1ccc(Cl)cc1"
value_observed = 5.21

[[record]]
compound = "COc1ccc2[nH]c3c(C)c4cc[n+](C)cc4c(C)c3c2c1"
value_observed = 39.2

[[record]]
compound = "CCSc1nc(-c2ccc(OC)cc2)cc(-c2ccc(OC)cc2)c1C#N"
value_observed = 0.76

[[record]]
compound = "Cc1ccc(C)c(CN2CCC(CNC(=O)C3CCCN(c4ncnc5c4nc4n5CCCCC4)C3)CC2)c1 (centres undefined)"
value_observed = -1.34

[[record]]
compound = "Cc1ccc(-c2nc(C3CCCN(S(=O)(=O)c4ccc(Br)s4)C3)no2)cc1 (centres undefined)"
value_observed = 5.63

[[record]]
compound = "CCC(c1ccc(NC(=O)OC(C)(C)C)cc1)c1cc(OC)cc(OC)c1 (centres undefined)"
value_observed = 3.19


Here is another compound to look at.
input: Name the reported inhibition value associated with the compound `C[C@@H]1CN([C@H](C)CO)S(=O)(=O)c2ccc(C#C[C@@H](C)O)cc2O[C@@H]1CN(C)Cc1ccc(-c2ccccc2)cc1`
output: 4.36
